Listing: Avg % Deletion of selected molecules
# Tested on: TTR
# Experiment notes: TTR editing in primary human hepatocytes transfected with Spy Cas9 mRNA and sgRNAs (Table 13)
# Format: cell-based
# Measurement context: primary human hepatocytes co-transfected with Spy Cas9 mRNA (SEQ ID NO:2) and sgRNAs, 12.5 nM
# Description: Primary liver hepatocytes. Primary human liver hepatocytes (PHH) and primary cynomolgus liver hepatocytes (PCH) (Gibco) were cultured per the manufacturer's protocol (Invitrogen, protocol 11.28.2012). […] Cells were counted and plated on Bio-coat collagen I coated 96-well plates (ThermoFisher, Cat. 877272) at a density of 33,000 cells/well for human or 60,000 cells/well for cyno (or 65,000 cells/well when assaying effects on TTR protein, described further below). […]
Strand notation (5' to 3'): a small letter for the sugar, then the base; units joined by * are phosphorothioate-linked, units joined directly phosphodiester-linked; [ ] holds rarer units or linkages, { } end groups; capitals alone tell only the bases. m = 2'-O-methyl; r = 2'-OH (RNA)
Readout: Avg % Deletion (%)

INSERT INTO results (molecule, readout, experimental_result) VALUES
  ('G000500: TTR sgRNA modified sequence, Human, SEQ ID No. 107; guide sequence of CR003337 (nucleic acid) guide: mC*mC*mA*rGrUrCrCrArGrCrArArGrGrCrArGrArGrGrGrUrUrUrUrArGrAmGmCmUmAmGmAmAmAmUmAmGmCrArArGrUrUrArArArArUrArArGrGrCrUrArGrUrCrCrGrUrUrArUrCrAmAmCmUmUmGmAmAmAmAmAmGmUmGmGmCmAmCmCmGmAmGmUmCmGmGmUmGmCmU*mU*mU*mU', 'Avg % Deletion', 3.10),
  ('G000495: TTR sgRNA modified sequence, Human, SEQ ID No. 102; guide sequence of CR003343 (nucleic acid) guide: mC*mA*mG*rArGrGrArCrArCrUrUrGrGrArUrUrCrArCrGrUrUrUrUrArGrAmGmCmUmAmGmAmAmAmUmAmGmCrArArGrUrUrArArArArUrArArGrGrCrUrArGrUrCrCrGrUrUrArUrCrAmAmCmUmUmGmAmAmAmAmAmGmUmGmGmCmAmCmCmGmAmGmUmCmGmGmUmGmCmU*mU*mU*mU', 'Avg % Deletion', 4.45);
